GI50 for assorted compounds
system: MALME-3M melanoma; assay: NCI tumour cell line growth inhibition, 48 h

Recorded results for 2 compounds are shown here.
- chemical.structure: "O=c1[nH]c2ccccc2c2ccccc12"
  GI50: "> 100 µM"
- chemical.structure: "O=C(Cc1ccc(/C=C/C(=O)c2ncc[nH]2)cc1)Nc1ccc(F)cc1"
  GI50: "7.86 µM"

Now for another entry.
For the compound CCOC(=O)/C(=C/N1CCN(C(=O)c2ccco2)C1=S)C(=O)c1ccccc1 , report GI50. 13.3 µM

###

tested on: SNB-19 CNS; assay: NCI tumour cell line growth inhibition, 48 h
Starred links: 1 amine or outer side, 2 acyl side, 3 side chain; linkers in the order of their positions; H or OH if unused. Positions of bridges follow the written chain, without caps; N, C: chain ends. Non-standard residues stand in square brackets, D forms with d. Residues, ends and D or L forms follow the SMILES beside them. Chains are numbered I, II in the order given. Actinocin(1to9) = Cc1c2oc3c(C)ccc(C(=O)[*:2])c3nc-2c(C(=O)[*:1])c(N)c1=O; NMeV = CN[CH](C(=O)O)C(C)C; Sar = CNCC(=O)O
quantity.name: TGI

- compound: "COc1ccc(/C=C(/C#N)C(N)=O)c(OC)c1"
  TGI: "> 100 µM"
- compound: "c1ccc2sc(SCCSc3nc4ccccc4s3)nc2c1"
  TGI: "> 100 µM"
- compound: "C=C1CC[C@@H]2[C@](C)(COC(C)=O)[C@H](OC(C)=O)CC[C@@]2(C)[C@@H]1CC(Nc1ccc(S(=O)(=O)NC(C)=O)cc1)C1=CCOC1=O (stereo partly specified)"
  TGI: "18.9 µM"
- compound: "CN(C)CCCc1cccc2[nH]c3c(c12)CN(C)CC3"
  TGI: "> 100 µM"
- compound: "OCCN1CCN(CCCN2c3ccccc3Sc3ccc(Cl)cc32)CC1"
  TGI: "5.7 µM"
- compound: "Nc1c(C(=O)O)nnc2cc(Cl)c(Cl)cc12"
  TGI: "> 100 µM"
- compound: "CCOC(=O)c1ccc(NC(=O)Nc2nncs2)cc1"
  TGI: "> 61.1 µM"
- compound: "Nc1ncnc2c1sc1nc3ccccc3n12"
  TGI: "> 100 µM"

For the compound O=C1NC(Cc2ccc(O)cc2)C(=O)N2CCCC12 (stereo unspecified) , report TGI. > 100 µM

For the compound COC(=O)c1n[nH]c(C)c1N=NN(C)CCC#N , report TGI. 87 µM

For the compound CCN(CC)C(=O)Cc1c(C(=O)N(CC)CC)c(=O)nc2sccn12 , report TGI. > 100 µM

For the compound CCCCCCCCCCCCCCCCCc1cccc(OCOCCOC)c1C(=O)O , report TGI. 40.6 µM

For the compound CCC(C)C1NC(=O)C(NC(=O)c2c3nc4c(C(=O)NC5C(=O)NC(C(C)CC)C(=O)N6CCCC6C(=O)N(C)CC(=O)N(C)C(C(C)C)C(=O)OC5C)ccc(C)c4oc-3c(C)c(=O)c2N)C(C)OC(=O)C(C(C)C)N(C)C(=O)CN(C)C(=O)C2CCCN2C1=O (stereo unspecified) (I: TIP[Sar][NMeV] / II: TIP[Sar][NMeV]; ester I:1-I:C, II:1-II:C; linker I:N-II:N via Actinocin(1to9); configuration not given here) , report TGI. 0.0111 µM

For the compound O=C(/C=C/c1cc(Cl)cc(Cl)c1O)c1cccc(O)c1 , report TGI. > 100 µM

For the compound CC[C@H](C)[C@H]1NC(=O)[C@@H](NC(=O)[C@@H](CC(C)C)N(C)C(=O)C2CCCN2C(=O)[C@H](C)O)[C@@H](C)OC(=O)[C@H](Cc2ccc(OC)cc2)N(C)C(=O)[C@@H]2CCCN2C(=O)[C@H](CCCCNC(=O)OCc2ccccc2)NC(=O)[C@H](C)C(=O)[C@H](C(C)C)OC(=O)C[C@@H]1O (stereo partly specified) , report TGI. > 25 µM

For the compound Cc1cc(O)c(=O)cc2c1C[C@H]1CC(C)(C)/C=C/C[C@]3(C)Oc4cc(=O)c(O)cc(C)c4C[C@H]3C[C@H](O)[C@@]1(C)O2 , report TGI. > 67.3 µM

###

tested on: IGROV1 ovarian; assay: NCI tumour cell line growth inhibition, 48 h
quantity.name: TGI

Recorded results for 5 compounds are shown here.
- compound: "COC(=O)CCC(NC(=S)N/N=C(\\C)c1cnc2ccccc2n1)C(=O)OC (stereo unspecified)"
  TGI: "> 100 µM"
- compound: "C=CCn1c(-c2ccc([N+](=O)[O-])cc2)cs/c1=N\\C(P(=O)(O)O)P(=O)(O)O"
  TGI: "> 100 µM"
- compound: "O=C(Cc1ccc(/C=C/C(=O)c2ncc[nH]2)cc1)Nc1ccc(F)cc1"
  TGI: "13.9 µM"
- compound: "O=c1[nH]c2ccccc2c(=O)n1/N=C/c1ccc(O)cc1"
  TGI: "> 100 µM"
- compound: "COc1cc2oc(=O)ccc2cc1C(=O)CC(C)C"
  TGI: "> 100 µM"

For the compound CC(C)(C)OC(=O)n1c2ccccc2c2c(=O)nc(N3CCCCC3)sc21 , report TGI. > 100 µM

###

TGI for assorted compounds
system: ACHN renal; assay: NCI tumour cell line growth inhibition, 48 h

For the compound OCCN1CCN(CCCN2c3ccccc3Sc3ccc(Cl)cc32)CC1 , report TGI. 13.6 µM

For the compound CC(C)(CN1CCCCC1)C(=O)/C=C/c1ccc(/C=C/C(=O)C(C)(C)CN2CCCCC2)cc1 , report TGI. 0.669 µM

For the compound Cc1cc(C)n(CC(Cn2nc(C)cc2C)=C(/C(Cl)=C(/Cl)Nc2ccc([N+](=O)[O-])cc2)[N+](=O)[O-])n1 , report TGI. 11.6 µM

For the compound COc1ccccc1NC(=S)N/N=C/c1c(C)n(C)n(-c2ccccc2)c1=O , report TGI. > 100 µM

For the compound COCCNCc1ccc(-c2cc3nccc(Oc4ccc(NC(=S)NC(=O)Cc5ccc(F)cc5)cc4F)c3s2)nc1 , report TGI. 4.54 µM

For the compound O=c1[nH]c(Cc2ccccc2)nc2c1sc1nc3ccccc3n12 , report TGI. > 100 µM

For the compound CCOC(=O)c1c[nH]c2c(Sc3ccccc3)nccc2c1=O , report TGI. > 100 µM

For the compound CCSCC1CC(O)(c2ccccc2)CC(c2ccc(F)cc2)O1 (stereo not given) , report TGI. 6.56 µM

For the compound COC(=O)C(N)CCCC(N)C(=O)NC(C)C(=O)NC(CCC(=O)NCCNCCNc1c2ccccc2nc2cccc([N+](=O)[O-])c12)C(N)=O (stereo not given) , report TGI. > 61.1 µM

For the compound CCN(CCCN(C)C)Cc1cc(I)cc(C)c1O , report TGI. 58.6 µM

###

tested on: HCT-116 colon; assay: NCI tumour cell line growth inhibition, 48 h
quantity.name: TGI

Recorded results for 5 compounds are shown here.
- compound: "c1ccc(-c2nnn3c2NC2=C(CCCC2)C3c2ccccc2)cc1 (stereo not given)"
  TGI: "24.3 µM"
- compound: "Cc1nc(N)c(N2CCN(C(=O)O)CC2)c(=O)[nH]1"
  TGI: "> 100 µM"
- compound: "CCOC(=O)c1cc(C(=O)c2cc(OC)c(OC)c(OC)c2)n2ncccc12"
  TGI: "> 100 µM"
- compound: "CC(C)(CN1CCCCC1)C(=O)/C=C/c1ccc(/C=C/C(=O)C(C)(C)CN2CCCCC2)cc1"
  TGI: "1.1 µM"
- compound: "COc1c(CC=C(C)C)c(O)c(C(CC(C)C)c2c(O)c3c(c(C(C)=O)c2O)OC(C(C)(C)O)C3)c(O)c1C(C)=O (stereo not given)"
  TGI: "> 12.5 µM"

For the compound N#Cc1c(-c2ccc(Cl)c(Cl)c2)c(-c2ccc(Cl)c(Cl)c2)nn(CC(=O)O)c1=O , report TGI. > 100 µM

For the compound CC(C)(O)[C@@H]1CC[C@@]2(C)CCCC(O)C2(O)C1 (stereo not given in full) , report TGI. > 100 µM

For the compound Cc1cc2c(c(C=Nc3ccccc3O)c1)OC1(C=C2)Oc2ccccc2C(=O)N1C (stereo not given) , report TGI. 27.5 µM

For the compound N#CC12Cc3cc4c(cc3-c3cccc(c31)CCN2C(=O)c1ccccc1)OCO4 (stereo not given) , report TGI. > 100 µM

For the compound O=c1[nH]c2nnc(COc3ccc(Cl)cc3Cl)n2nc1Cc1ccccc1 , report TGI. > 100 µM

###

system: NCI/ADR-RES ovarian; assay: NCI tumour cell line growth inhibition, 48 h
Starred links: 1 amine or outer side, 2 acyl side, 3 side chain; linkers in the order of their positions; H or OH if unused. Positions of bridges follow the written chain, without caps; N, C: chain ends. Non-standard residues stand in square brackets, D forms with d. Residues, ends and D or L forms follow the SMILES beside them. Chains are numbered I, II in the order given. Actinocin(1to9) = Cc1c2oc3c(C)ccc(C(=O)[*:2])c3nc-2c(C(=O)[*:1])c(N)c1=O; NMeV = CN[CH](C(=O)O)C(C)C; Sar = CNCC(=O)O
quantity.name: TGI

Recorded results for 3 compounds are shown here.
- compound: "NC(Cc1ccc(OCc2ccccc2)cn1)C(=O)O (stereo not given)"
  TGI: "> 100 µM"
- compound: "O=C(Cc1ccc(/C=C/C(=O)c2ncc[nH]2)cc1)Nc1ccc(F)cc1"
  TGI: "> 33.3 µM"
- compound: "N=C1OC(CN2CCN(c3ccccc3)CC2)CN1C(=S)Nc1ccccc1 (stereo not given)"
  TGI: "> 100 µM"

GET TGI where system = NCI/ADR-RES ovarian and item = CCC(C)C1NC(=O)C(NC(=O)c2c3nc4c(C(=O)NC5C(=O)NC(C(C)CC)C(=O)N6CCCC6C(=O)N(C)CC(=O)N(C)C(C(C)C)C(=O)OC5C)ccc(C)c4oc-3c(C)c(=O)c2N)C(C)OC(=O)C(C(C)C)N(C)C(=O)CN(C)C(=O)C2CCCN2C1=O (stereo not given) (I: TIP[Sar][NMeV] / II: TIP[Sar][NMeV]; ester I:1-I:C, II:1-II:C; linker I:N-II:N via Actinocin(1to9); configuration not given here) 2.63 µM

GET TGI where system = NCI/ADR-RES ovarian and item = Cc1c(N2C(=O)/C(=C/c3ccc(Cl)cc3)N=C2c2ccccc2)c(=O)n(-c2ccccc2)n1C > 100 µM

GET TGI where system = NCI/ADR-RES ovarian and item = O=C1NC(=O)C(F)(n2cc(F)c(=O)[nH]c2=O)C(O)N1 (stereo not given) > 10 µM

GET TGI where system = NCI/ADR-RES ovarian and item = O=c1[nH]c(Nc2ccc(Cl)c(C(F)(F)F)c2)nc2nc[nH]c12 > 100 µM

GET TGI where system = NCI/ADR-RES ovarian and item = CC(C)(C)c1ccc(S(=O)(=O)Oc2ccc3c4c(c(=O)oc3c2)CCCCC4)cc1 > 100 µM

GET TGI where system = NCI/ADR-RES ovarian and item = CCCNC(=S)/N=C/c1c(O)cc(C)oc1=O > 100 µM

GET TGI where system = NCI/ADR-RES ovarian and item = O=C1CSC(/C=C/c2ccccc2)N1c1nc2cc3sc(N4C(=O)CSC4/C=C/c4ccccc4)nc3cc2s1 (stereo not given) > 100 µM

GET TGI where system = NCI/ADR-RES ovarian and item = Nc1c(C(=O)O)nnc2cc(Cl)c(Cl)cc12 > 100 µM

Source listed as PubChem BioAssay (NCI).
